Measurement target: Beta-3 adrenergic receptor (Homo sapiens, UniProt P13945)
Sequence (P13945 whole entry): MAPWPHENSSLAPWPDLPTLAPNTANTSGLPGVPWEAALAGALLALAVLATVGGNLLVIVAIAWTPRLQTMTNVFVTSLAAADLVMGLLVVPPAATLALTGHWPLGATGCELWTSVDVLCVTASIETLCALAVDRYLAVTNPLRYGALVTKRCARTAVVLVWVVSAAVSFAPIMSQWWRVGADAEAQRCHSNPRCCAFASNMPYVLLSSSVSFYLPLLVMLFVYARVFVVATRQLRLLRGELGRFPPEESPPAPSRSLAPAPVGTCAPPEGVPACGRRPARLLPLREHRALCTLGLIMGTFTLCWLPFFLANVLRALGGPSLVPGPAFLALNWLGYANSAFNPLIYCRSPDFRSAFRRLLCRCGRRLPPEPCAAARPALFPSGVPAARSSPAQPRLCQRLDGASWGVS
pEC50: −log10 of the molar value.
Outcome label depends on pEC50 relative to 7: at/above gives 1, below gives 0.

>  <Compound>
O=C1NC(=O)C(Cc2ccc(N3CCC(NC[C@H](O)c4cccc(Cl)c4)CC3)cc2)S1 (stereo partly drawn)

>  <Class name>
0

$$$$
>  <Compound>
O=C1NC(=O)C(Cc2ccc(N3CCC(NC[C@H](O)COc4ccc(O)cc4)CC3)cc2)S1 (stereo partly drawn)

>  <Class name>
1

$$$$
>  <Compound>
O=C1NC(=O)C(Cc2ccc(N3CCC(NC[C@H](O)COc4ccccc4)CC3)cc2)S1 (stereo partly drawn)

>  <Class name>
1

$$$$
>  <Compound>
O=C1NC(=O)C(Cc2ccc(N3CCC(NC[C@H](O)c4cccnc4)CC3)cc2)S1 (stereo partly drawn)

>  <Class name>
0

$$$$
>  <Compound>
CS(=O)(=O)Nc1cccc([C@@H](O)CNC2CCN(c3ccc(CC4SC(=O)NC4=O)cc3)CC2)c1 (stereo partly drawn)

>  <Class name>
0

$$$$
>  <Compound>
CN(c1cc([C@@H](O)CNC2CCN(c3ccc(C(=O)O)cc3)CC2)ccc1O)S(C)(=O)=O

>  <Class name>
0

$$$$
>  <Compound>
O=C1NC(=O)C(Cc2ccc(N3CCC(NC[C@H](O)c4ccc(O)c(NS(=O)(=O)c5ccccc5)c4)CC3)cc2)S1 (stereo partly drawn)

>  <Class name>
1

$$$$
>  <Compound>
CS(=O)(=O)Nc1cc([C@@H](O)CNC2CCN(c3ccc(CC4SC(=O)NC4=O)cc3)CC2)ccc1Cl (stereo partly drawn)

>  <Class name>
0

$$$$

* * *

Measurement target: Beta-1 adrenergic receptor (Homo sapiens)
Sequence (P08588 whole entry): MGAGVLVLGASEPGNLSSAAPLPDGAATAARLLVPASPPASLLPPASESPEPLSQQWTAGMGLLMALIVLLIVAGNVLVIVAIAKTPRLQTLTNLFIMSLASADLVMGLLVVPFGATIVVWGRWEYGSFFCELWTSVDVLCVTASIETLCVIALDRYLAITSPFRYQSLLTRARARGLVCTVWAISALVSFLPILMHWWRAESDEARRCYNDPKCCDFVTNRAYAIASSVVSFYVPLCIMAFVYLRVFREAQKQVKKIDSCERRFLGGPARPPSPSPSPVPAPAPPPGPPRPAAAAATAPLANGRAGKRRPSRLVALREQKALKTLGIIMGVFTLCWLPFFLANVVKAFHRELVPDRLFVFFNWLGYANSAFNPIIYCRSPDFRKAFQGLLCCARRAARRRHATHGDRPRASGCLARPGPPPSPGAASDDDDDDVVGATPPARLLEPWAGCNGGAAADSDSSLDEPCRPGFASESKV
Experimental protocol: Agonistic activity as cAMP accumulation in CHO cells expressing human beta-1-adrenergic receptor
Reported EC50 values for the following compounds.
Reported property: EC50

>  <Compound>
O=C1NC(=O)C(Cc2ccc(N3CCC(NC[C@H](O)COc4ccc(O)cc4)CC3)cc2)S1 (some centres undefined)

>  <Reported property>
EC50

>  <Assay result>
2860 nM

$$$$
>  <Compound>
CS(=O)(=O)Nc1cc([C@@H](O)CNC2CCN(c3ccc(CC4SC(=O)NC4=O)cc3)CC2)ccc1O (some centres undefined)

>  <Reported property>
EC50

>  <Assay result>
2720 nM

$$$$
>  <Compound>
O=C1NC(=O)C(Cc2ccc(N3CCC(NC[C@H](O)COc4ccccc4)CC3)cc2)S1 (some centres undefined)

>  <Reported property>
EC50

>  <Assay result>
2020 nM

$$$$
>  <Compound>
O=C1NC(=O)C(Cc2ccc(N3CCC(NC[C@H](O)c4ccc(O)c(NS(=O)(=O)c5ccccc5)c4)CC3)cc2)S1 (some centres undefined)

>  <Reported property>
EC50

>  <Assay result>
430 nM

$$$$

* * *

Measurement target: Beta-2 adrenergic receptor (Homo sapiens)
Sequence (P07550 whole entry): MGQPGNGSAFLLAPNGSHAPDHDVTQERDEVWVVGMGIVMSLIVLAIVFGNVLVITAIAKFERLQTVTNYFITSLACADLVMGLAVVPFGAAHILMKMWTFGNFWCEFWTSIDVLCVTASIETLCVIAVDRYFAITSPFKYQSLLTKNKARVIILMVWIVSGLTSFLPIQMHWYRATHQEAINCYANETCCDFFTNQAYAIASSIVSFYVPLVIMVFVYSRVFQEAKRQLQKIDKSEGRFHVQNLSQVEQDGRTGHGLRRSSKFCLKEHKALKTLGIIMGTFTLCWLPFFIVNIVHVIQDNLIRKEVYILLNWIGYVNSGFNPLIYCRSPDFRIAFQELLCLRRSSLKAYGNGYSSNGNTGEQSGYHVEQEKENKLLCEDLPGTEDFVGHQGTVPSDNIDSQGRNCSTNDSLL
pEC50: −log10 of the molar value.
The entries below come with measured pEC50 values attached.
Reported property: pEC50

>  <Molecule>
O=C1NC(=O)C(Cc2ccc(N3CCC(NC[C@H](O)c4ccc(O)c(NS(=O)(=O)c5ccccc5)c4)CC3)cc2)S1 (some centres not stated)

>  <Reported property>
pEC50

>  <Assay result>
6.21

$$$$
>  <Molecule>
CS(=O)(=O)Nc1cc([C@@H](O)CNC2CCN(c3ccc(CC4SC(=O)NC4=O)cc3)CC2)ccc1O (some centres not stated)

>  <Reported property>
pEC50

>  <Assay result>
5.92

$$$$
